Taken from ChEMBL document CHEMBL1177813.

Provide the reported IC50 of each item.
# Assay System: UniProt:P32238
# Sequence (P32238 whole entry): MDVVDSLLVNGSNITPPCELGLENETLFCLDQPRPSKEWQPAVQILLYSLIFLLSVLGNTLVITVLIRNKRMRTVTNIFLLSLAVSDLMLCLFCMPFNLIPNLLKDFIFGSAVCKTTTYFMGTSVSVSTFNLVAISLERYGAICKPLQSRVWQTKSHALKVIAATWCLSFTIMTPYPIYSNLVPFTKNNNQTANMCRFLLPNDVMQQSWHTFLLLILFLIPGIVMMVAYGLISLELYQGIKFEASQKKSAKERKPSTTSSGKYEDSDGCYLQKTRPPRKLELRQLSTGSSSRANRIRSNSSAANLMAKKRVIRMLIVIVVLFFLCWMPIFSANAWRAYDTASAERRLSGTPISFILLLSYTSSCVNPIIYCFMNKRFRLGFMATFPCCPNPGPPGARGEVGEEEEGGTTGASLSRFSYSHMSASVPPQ
# Assay: Displacement of [125I]CCK-8(SO3) from human CCK1 receptor expressed in human HEK293 cells
Numbers only, in nM.

List reported IC50 for each of these compounds:
1. CCCC[C@H](NC(=O)[C@H](Cc1c[nH]c2ccccc12)NC(=O)[C@H](CCCNC(=N)N)NC(=O)[C@@H](Cc1ccc2ccccc2c1)NC(=O)[C@H](Cc1cnc[nH]1)NC(=O)[C@H](Cc1ccccc1)NC(=O)CNC(=O)[C@@H](C)NC(=O)[C@@H](N)Cc1ccc(O)cc1)C(=O)N[C@@H](CC(=O)O)C(=O)N[C@@H](Cc1ccccc1)C(N)=O
2. CCCC[C@H](NC(=O)[C@H](Cc1c[nH]c2ccccc12)NC(=O)[C@H](CCCN=C(N)N)NC(=O)[C@@H](Cc1ccc2ccccc2c1)NC(=O)[C@H](Cc1cnc[nH]1)NC(=O)[C@H](Cc1ccccc1)NC(=O)[C@@H](C)NC(=O)[C@@H](N)Cc1c(C)cc(O)cc1C)C(=O)N[C@@H](CC(=O)O)C(=O)N[C@@H](Cc1ccccc1)C(N)=O

1: 10; 2: 0.794

I need IC50 for every entry listed below, if you could help.
1. CCCC[C@H](NC(=O)[C@H](Cc1c[nH]c2ccccc12)NC(=O)[C@H](CCCNC(=N)N)NC(=O)[C@@H](Cc1ccc2ccccc2c1)NC(=O)[C@H](Cc1cnc[nH]1)NC(=O)[C@H](Cc1ccccc1)NC(=O)CNC(=O)[C@@H](C)NC(=O)[C@@H](N)Cc1c(C)cc(O)cc1C)C(=O)N[C@@H](CC(=O)O)C(=O)N[C@@H](Cc1ccccc1)C(N)=O
2. CCCC[C@H](NC(=O)[C@H](Cc1c[nH]c2ccccc12)NC(=O)[C@H](CCCNC(=N)N)NC(=O)[C@@H](Cc1ccc2ccccc2c1)NC(=O)[C@H](Cc1cnc[nH]1)NC(=O)[C@H](Cc1ccccc1)NC(=O)[C@@H](C)NC(=O)[C@@H](N)Cc1ccc(O)cc1)C(=O)N[C@@H](CC(=O)O)C(=O)N[C@@H](Cc1ccccc1)C(N)=O
3. CCCC[C@H](NC(=O)[C@H](Cc1c[nH]c2ccccc12)NC(=O)[C@H](CCCNC(=N)N)NC(=O)[C@@H](Cc1ccccc1)NC(=O)[C@H](Cc1cnc[nH]1)NC(=O)[C@H](Cc1ccccc1)NC(=O)CNC(=O)[C@@H](C)NC(=O)[C@@H](N)Cc1ccc(O)cc1)C(=O)N[C@@H](CC(=O)O)C(=O)N[C@@H](Cc1ccccc1)C(N)=O

[20, 1.58, 2510]

----------
# Assay System: Mu-type opioid receptor (Rattus norvegicus, UniProt P33535)
# Sequence (P33535 whole entry): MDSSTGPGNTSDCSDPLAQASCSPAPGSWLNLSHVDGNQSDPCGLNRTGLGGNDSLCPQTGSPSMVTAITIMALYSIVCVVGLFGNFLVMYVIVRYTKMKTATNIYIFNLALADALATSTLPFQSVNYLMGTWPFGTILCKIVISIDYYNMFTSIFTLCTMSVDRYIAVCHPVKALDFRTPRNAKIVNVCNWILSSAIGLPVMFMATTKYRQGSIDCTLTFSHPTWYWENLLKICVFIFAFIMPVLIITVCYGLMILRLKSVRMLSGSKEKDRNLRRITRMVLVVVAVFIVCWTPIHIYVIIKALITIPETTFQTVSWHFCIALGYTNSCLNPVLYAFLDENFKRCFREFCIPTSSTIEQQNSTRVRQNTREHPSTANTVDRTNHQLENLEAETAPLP
# Assay: Displacement of [3H]DAMGO from rat mu opioid receptor expressed in mouse HN9.10 cells
Value Type: IC50 (nM)
Numbers only, in nM.

Example entries begin here.
CCCC[C@H](NC(=O)[C@H](Cc1c[nH]c2ccccc12)NC(=O)[C@H](CCCNC(=N)N)NC(=O)[C@@H](Cc1ccc2ccccc2c1)NC(=O)[C@H](Cc1cnc[nH]1)NC(=O)[C@H](Cc1ccccc1)NC(=O)[C@@H](C)NC(=O)[C@@H](N)Cc1ccc(O)cc1)C(=O)N[C@@H](CC(=O)O)C(=O)N[C@@H](Cc1ccccc1)C(N)=O
501
N=C(N)NCCC[C@@H]1NC(=O)[C@H](Cc2ccc(Cl)cc2)NC(=O)[C@H](Cc2cnc[nH]2)NC(=O)CNC(=O)[C@H](NC(=O)[C@@H](N)Cc2ccc(O)cc2)CC(=O)NCCCC[C@@H](C(=O)N[C@@H](CC(=O)O)C(=O)N[C@H](Cc2ccccc2)C(N)=O)NC(=O)[C@H](Cc2cc3ccccc3[nH]2)NC1=O
3980

Consider now this further compound.
Param readout= IC50; system= Mu-type opioid receptor (Rattus norvegicus, UniProt P33535); entry= CCCC[C@H](NC(=O)[C@H](Cc1c[nH]c2ccccc12)NC(=O)[C@H](CCCNC(=N)N)NC(=O)[C@@H](Cc1ccc2ccccc2c1)NC(=O)[C@H](Cc1cnc[nH]1)NC(=O)[C@@H]1Cc2ccccc2CN1C(=O)C(N)Cc1c(C)cc(O)cc1C)C(=O)N[C@@H](CC(=O)O)C(=O)N[C@@H](Cc1ccccc1)C(N)=O (single isomer, unassigned) ; returns value.
100

----------
# Assay System: Mu-type opioid receptor (Cavia porcellus, UniProt P97266)
# Sequence (P97266 whole entry): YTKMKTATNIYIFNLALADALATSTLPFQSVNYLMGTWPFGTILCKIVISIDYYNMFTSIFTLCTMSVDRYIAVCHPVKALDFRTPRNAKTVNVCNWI
# Assay: Agonist activity at mu opioid receptor in guinea pig ileum assessed as inhibition of electrically-stimulated muscle contraction
# Assay type: functional, tissue-based
Record form. Attribute: pIC50. Fill in for each entry.
Answers are plain numbers, as −log10 of the molar value.

Recorded pIC50, per entry:
Cc1cc(O)cc(C)c1C[C@H](N)C(=O)N1CC(=O)N[C@@H](Cc2cnc[nH]2)C(=O)N[C@H](Cc2ccc3ccccc3c2)C(=O)N[C@@H](CCCNC(=N)N)C(=O)N[C@@H](Cc2c[nH]c3ccccc23)C(=O)N[C@H](C(=O)N[C@@H](CC(=O)O)C(=O)N[C@@H](Cc2ccccc2)C(N)=O)CSSC[C@@H](N)C1=O
6.55
C[C@@H](NC(=O)[C@@H](N)Cc1ccc(O)cc1)C(=O)NCC(=O)N[C@@H](Cc1ccccc1)C(=O)NCCCC[C@H](NC(=O)[C@H](Cc1c[nH]c2ccccc12)NC(=O)[C@H](CCCN=C(N)N)NC(=O)[C@@H](Cc1ccc(Cl)cc1)NC(=O)[C@@H](N)Cc1cnc[nH]1)C(=O)N[C@@H](CC(=O)O)C(=O)N[C@@H](Cc1ccccc1)C(N)=O
6.48
CCCC[C@H](NC(=O)[C@H](Cc1c[nH]c2ccccc12)NC(=O)[C@H](CCCNC(=N)N)NC(=O)[C@@H](Cc1ccc2ccccc2c1)NC(=O)[C@H](Cc1cnc[nH]1)NC(=O)[C@H](Cc1ccccc1)NC(=O)CNC(=O)[C@@H](C)NC(=O)[C@@H](N)Cc1c(C)cc(O)cc1C)C(=O)N[C@@H](CC(=O)O)C(=O)N[C@@H](Cc1ccccc1)C(N)=O
8.08

Field: pIC50. Fill in for each record below.
1. CCCC[C@H](NC(=O)[C@H](Cc1c[nH]c2ccccc12)NC(=O)[C@H](CCCN=C(N)N)NC(=O)[C@@H](Cc1ccc2ccccc2c1)NC(=O)[C@H](Cc1cnc[nH]1)NC(=O)[C@H]1Cc2ccccc2CN1C(=O)[C@@H](N)Cc1c(C)cc(O)cc1C)C(=O)N[C@@H](CC(=O)O)C(=O)N[C@@H](Cc1ccccc1)C(N)=O
2. CCCC[C@H](NC(=O)[C@H](Cc1c[nH]c2ccccc12)NC(=O)[C@H](CCCNC(=N)N)NC(=O)[C@@H](Cc1ccccc1)NC(=O)[C@H](Cc1cnc[nH]1)NC(=O)[C@H](Cc1ccccc1)NC(=O)CNC(=O)[C@@H](C)NC(=O)[C@@H](N)Cc1ccc(O)cc1)C(=O)N[C@@H](CC(=O)O)C(=O)N[C@@H](Cc1ccccc1)C(N)=O
3. CCCC[C@H](NC(=O)[C@H](Cc1c[nH]c2ccccc12)NC(=O)[C@H](CCCNC(=N)N)NC(=O)[C@@H](Cc1ccc2ccccc2c1)NC(=O)[C@H](Cc1cnc[nH]1)NC(=O)[C@H](Cc1ccccc1)NC(=O)CNC(=O)[C@@H](C)NC(=O)[C@@H](N)Cc1ccc(O)cc1)C(=O)N[C@@H](CC(=O)O)C(=O)N[C@@H](Cc1ccccc1)C(N)=O
4. CCCC[C@H](NC(=O)[C@H](Cc1c[nH]c2ccccc12)NC(=O)[C@H](CCCN=C(N)N)NC(=O)[C@@H](Cc1ccc2ccccc2c1)NC(=O)[C@H](Cc1cnc[nH]1)NC(=O)[C@H](Cc1ccccc1)NC(=O)[C@@H](C)NC(=O)[C@@H](N)Cc1c(C)cc(O)cc1C)C(=O)N[C@@H](CC(=O)O)C(=O)N[C@@H](Cc1ccccc1)C(N)=O
5. CCCC[C@H](NC(=O)[C@H](Cc1c[nH]c2ccccc12)NC(=O)[C@H](CCCNC(=N)N)NC(=O)[C@@H](Cc1ccc2ccccc2c1)NC(=O)[C@H](Cc1cnc[nH]1)NC(=O)[C@H](Cc1ccccc1)NC(=O)[C@@H](C)NC(=O)[C@@H](N)Cc1ccc(O)cc1)C(=O)N[C@@H](CC(=O)O)C(=O)N[C@@H](Cc1ccccc1)C(N)=O

6.24
6.89
6.70
7.18
5.64

----------
# Assay System: Delta-type opioid receptor (Homo sapiens)
# Sequence (P41143 whole entry): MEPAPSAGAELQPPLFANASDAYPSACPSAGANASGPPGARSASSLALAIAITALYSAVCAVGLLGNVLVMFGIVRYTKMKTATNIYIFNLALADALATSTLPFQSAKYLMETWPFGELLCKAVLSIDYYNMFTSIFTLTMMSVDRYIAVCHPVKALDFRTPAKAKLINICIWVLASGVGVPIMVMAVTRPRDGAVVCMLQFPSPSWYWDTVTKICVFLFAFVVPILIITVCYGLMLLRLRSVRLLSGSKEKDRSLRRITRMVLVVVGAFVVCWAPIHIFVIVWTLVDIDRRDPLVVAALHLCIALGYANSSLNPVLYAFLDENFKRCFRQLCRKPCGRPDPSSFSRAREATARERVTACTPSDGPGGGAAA
# Assay: Displacement of [3H]DPDPE from human delta opioid receptor expressed in mouse HN9.10 cells
Value Type: Ki (nM)
Answers are plain numbers, in nM.

// solved cases for Ki follow
CCCC[C@H](NC(=O)[C@H](Cc1c[nH]c2ccccc12)NC(=O)[C@H](CCCNC(=N)N)NC(=O)[C@@H](Cc1ccc2ccccc2c1)NC(=O)[C@H](Cc1cnc[nH]1)NC(=O)[C@@H]1Cc2ccccc2CN1C(=O)C(N)Cc1c(C)cc(O)cc1C)C(=O)N[C@@H](CC(=O)O)C(=O)N[C@@H](Cc1ccccc1)C(N)=O (single isomer, unassigned)
0.91
Cc1cc(O)cc(C)c1C[C@H](N)C(=O)N1CC(=O)N[C@@H](Cc2cnc[nH]2)C(=O)N[C@H](Cc2ccc3ccccc3c2)C(=O)N[C@@H](CCCNC(=N)N)C(=O)N[C@@H](Cc2c[nH]c3ccccc23)C(=O)N[C@H](C(=O)N[C@@H](CC(=O)O)C(=O)N[C@@H](Cc2ccccc2)C(N)=O)CSSC[C@@H](N)C1=O
5.6

Would you kindly share the measured Ki for `CCCC[C@H](NC(=O)[C@H](Cc1c[nH]c2ccccc12)NC(=O)[C@H](CCCNC(=N)N)NC(=O)[C@@H](Cc1ccc2ccccc2c1)NC(=O)[C@H](Cc1cnc[nH]1)NC(=O)[C@H](Cc1ccccc1)NC(=O)CNC(=O)[C@@H](C)NC(=O)[C@@H](N)Cc1ccc(O)cc1)C(=O)N[C@@H](CC(=O)O)C(=O)N[C@@H](Cc1ccccc1)C(N)=O` ?
2.9
